All values here come from paper PMC9090415.

Items are presented alongside their recorded % inhibition ApPOL 90'.
- studySystem: UniProt:Q8ILY1
- Sequence (Q8ILY1 entry or part of it): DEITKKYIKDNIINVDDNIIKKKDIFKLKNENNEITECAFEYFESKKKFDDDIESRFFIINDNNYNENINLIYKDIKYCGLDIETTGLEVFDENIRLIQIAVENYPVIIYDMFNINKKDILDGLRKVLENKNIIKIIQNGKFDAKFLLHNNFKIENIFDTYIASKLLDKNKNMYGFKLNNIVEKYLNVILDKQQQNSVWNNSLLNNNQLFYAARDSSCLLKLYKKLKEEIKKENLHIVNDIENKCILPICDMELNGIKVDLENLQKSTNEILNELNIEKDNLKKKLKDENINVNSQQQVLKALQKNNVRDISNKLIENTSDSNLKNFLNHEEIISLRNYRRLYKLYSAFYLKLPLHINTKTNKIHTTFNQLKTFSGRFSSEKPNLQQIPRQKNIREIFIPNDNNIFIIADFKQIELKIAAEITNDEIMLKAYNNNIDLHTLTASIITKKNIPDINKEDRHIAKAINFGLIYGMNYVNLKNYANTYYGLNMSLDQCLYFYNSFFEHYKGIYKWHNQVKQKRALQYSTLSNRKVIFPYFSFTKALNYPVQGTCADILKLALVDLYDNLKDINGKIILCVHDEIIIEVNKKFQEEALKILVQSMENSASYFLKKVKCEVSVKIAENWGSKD
- procedureText: Fluorescence-based high-throughput DNA polymerase assay (molecular beacon), primary screen and dose-response;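 further: test concentration in µM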
- Assay type: biochemical
- conditionsUsed: DRC-2; 90'; concentration 10
Hi! Could you send only the number? It should be in %, unit omitted.

For the molecule `O=C(Nc1ccc2c(c1)Cc1cc(NC(=O)c3ccco3)ccc1-2)c1ccco1` , give its measured % inhibition ApPOL 90' value. 35

For the molecule `COc1ccc(-c2occ(C(=O)O)c2C(=O)O)cc1` , give its measured % inhibition ApPOL 90' value. 50

For the molecule `COc1ccc(-c2cc3nc4c(c(=O)n3[nH]2)CCN(C(=O)CCc2ccccc2)C4)cc1` , give its measured % inhibition ApPOL 90' value. 33

For the molecule `O=C1NCCCn2cc(S(=O)(=O)Nc3ccccc3)cc21` , give its measured % inhibition ApPOL 90' value. 21

For the molecule `Cn1nc(C(=O)N2CCc3c(nc4cc(-c5ccccc5)[nH]n4c3=O)C2)c2ccccc21` , give its measured % inhibition ApPOL 90' value. 39

For the molecule `CS(=O)(=O)c1cccc(C(=O)Nc2nnc(-c3ccno3)o2)c1` , give its measured % inhibition ApPOL 90' value. 8

For the molecule `CC(C)(C)c1cc(C(=O)C(C#N)=NNc2cccc(Cl)c2)no1` , give its measured % inhibition ApPOL 90' value. 39

For the molecule `O=C(O)C(=O)Nc1nc(-c2ccc3c(c2)OCCO3)cs1` , give its measured % inhibition ApPOL 90' value. 23
